Known GI50 of a selection of compounds
test system: MDA-MB-231; assay: Growth inhibition of human MDA-MB-231 cells after 48 hrs by sulforhodamine B assay; assay type: functional; conditions: MDA-MB-231, 48 h
Numbers only; they are read as µM.

*Q* Give recorded GI50 with MDA-MB-231 for the following compound: CC1CCCc2c1nc(N)c(C#N)c2-c1cccn1C (stereo not drawn)
*A* 69.2

*Q* What would you report for Cn1cccc1-c1cc(-c2ccccc2)nc(N)c1C#N ?
*A* 67.6

*Q* What would you report for Cn1cccc1-c1cc(-c2ccccc2)[nH]c(=O)c1C#N ?
*A* 83.2

Could you now consider this next compound?
*Q* Give recorded GI50 with MDA-MB-231 for the following compound: COc1ccc(-c2cc(-c3cccn3C)c(C#N)c(N)n2)cc1OC
*A* 38

###

test: Growth inhibition of human HCT116 cells after 48 hrs by sulforhodamine B assay; assay type: functional; details: HCT-116, 48 h
Reported endpoint: GI50

For orientation, consider the following solved cases.
*Q* Fill in: GI50 of CC1CCCc2c1nc(N)c(C#N)c2-c1cccn1C (stereo not drawn) is ___
*A* > 100 µM

*Q* What would you report for Cn1cccc1-c1cc(-c2ccccc2)[nH]c(=O)c1C#N ?
*A* > 100 µM

*Q* What would you report for Cn1cccc1-c1cc(-c2ccccc2)nc(N)c1C#N ?
*A* > 100 µM

*Q* What would you report for CC1CCCc2c1[nH]c(=O)c(C#N)c2-c1cccn1C (stereo not drawn) ?
*A* > 100 µM

*Q* What would you report for Cn1cccc1-c1cc(-c2cccs2)nc(N)c1C#N ?
*A* > 100 µM

New cases:
*Q* Fill in: GI50 of COc1ccc(-c2cc(-c3cccn3C)c(C#N)c(=O)[nH]2)cc1OC is ___
*A* 91.2 µM

*Q* What would you report for Cn1cccc1-c1cc(-c2cccs2)[nH]c(=O)c1C#N ?
*A* > 100 µM

*Q* What would you report for COc1ccc(-c2cc(-c3cccn3C)c(C#N)c(N)n2)cc1OC ?
*A* 89.1 µM

###

Known GI50 of a selection of compounds
system: NCI-H226; experiment: Growth inhibition of human NCI-H226 cells after 48 hrs by sulforhodamine B assay; type: functional; settings: NCI-H226, 48 h

*Q* Fill in: GI50 of Cn1cccc1-c1cc(-c2cccs2)[nH]c(=O)c1C#N is ___
*A* 69.2 µM

*Q* What would you report for COc1ccc(-c2cc(-c3cccn3C)c(C#N)c(N)n2)cc1OC ?
*A* > 100 µM

*Q* What would you report for CC1CCCc2c1[nH]c(=O)c(C#N)c2-c1cccn1C (stereo not drawn) ?
*A* > 100 µM

*Q* What would you report for Cn1cccc1-c1cc(-c2cccs2)nc(N)c1C#N ?
*A* > 100 µM

*Q* What would you report for Cn1cccc1-c1cc(-c2ccccc2)[nH]c(=O)c1C#N ?
*A* > 100 µM

New cases:
*Q* Fill in: GI50 of Cn1cccc1-c1cc(-c2ccccc2)nc(N)c1C#N is ___
*A* > 100 µM

*Q* What would you report for COc1ccc(-c2cc(-c3cccn3C)c(C#N)c(=O)[nH]2)cc1OC ?
*A* > 100 µM

*Q* What would you report for CC1CCCc2c1nc(N)c(C#N)c2-c1cccn1C (stereo not drawn) ?
*A* 64.6 µM

###

test: Growth inhibition of human HCT116 cells at 10 uM after 48 hrs by sulforhodamine B assay; assay type: functional; details: HCT-116, 48 h, read-out: GI
Known inhibition of growth at 10 µM of a selection of compounds
Numbers only; they are read as %.

*Q* Fill in: inhibition of growth at 10 µM of CC1CCCc2c1nc1[nH]c(=S)nc(N)c1c2-c1cccn1C (centres undefined) is ___
*A* 22.6

*Q* What would you report for CCSc1nc(N)c2c(-c3cccn3C)c3c(nc2n1)C(C)CCC3 (centres undefined) ?
*A* 35.3

*Q* What would you report for CC1CCCc2c1nc(NC(=S)NC(=O)c1ccccc1)c(C#N)c2-c1cccn1C (centres undefined) ?
*A* 19.5

Could you now consider this next compound?
*Q* Fill in: inhibition of growth at 10 µM of CC1CCCc2c1nc1ncn(N)c(=N)c1c2-c1cccn1C (centres undefined) is ___
*A* 11.7

###

experiment: Growth inhibition of human EKVX cells after 48 hrs by sulforhodamine B assay; type: functional
Reported endpoint: GI50 (µM)
Numbers only; they are read as µM.

*Q* Fill in: GI50 of Cn1cccc1-c1cc(-c2ccccc2)[nH]c(=O)c1C#N is ___
*A* 31.7

*Q* What would you report for Cn1cccc1-c1cc(-c2ccccc2)nc(N)c1C#N ?
*A* 95.5

*Q* What would you report for COc1ccc(-c2cc(-c3cccn3C)c(C#N)c(=O)[nH]2)cc1OC ?
*A* 30.9

Could you now consider this next molecule?
*Q* Fill in: GI50 of Cn1cccc1-c1cc(-c2cccs2)[nH]c(=O)c1C#N is ___
*A* 52.5

###

test system: SK-MEL-5; experiment: Growth inhibition of human SK-MEL-5 cells at 10 uM after 48 hrs by sulforhodamine B assay; format: functional; details: SK-MEL-5, 48 h, read-out: GI
Reported endpoint: inhibition of growth at 10 µM (%)
Numbers only; they are read as %.

For orientation, consider the following solved cases.
*Q* Fill in: inhibition of growth at 10 µM of CC1CCCc2c1nc1[nH]c(=S)n(-c3ccccc3)c(=N)c1c2-c1cccn1C (stereo not given) is ___
*A* 16.3

*Q* What would you report for CC1CCCc2c1nc(NC(=S)NC(=O)c1ccccc1)c(C#N)c2-c1cccn1C (stereo not given) ?
*A* 12.8

*Q* What would you report for CC1CCCc2c1nc1ncn(N)c(=N)c1c2-c1cccn1C (stereo not given) ?
*A* 10.5

New cases:
*Q* Fill in: inhibition of growth at 10 µM of CC1CCCc2c1nc1[nH]c(=S)nc(N)c1c2-c1cccn1C (stereo not given) is ___
*A* 18.4

*Q* What would you report for CCSc1nc(N)c2c(-c3cccn3C)c3c(nc2n1)C(C)CCC3 (stereo not given) ?
*A* 13.1

###

experiment: Growth inhibition of human RPMI8226 cells at 10 uM after 48 hrs by sulforhodamine B assay; assay type: functional; settings: RPMI-8226, 48 h, read-out: GI
Known inhibition of growth at 10 µM of a selection of compounds

*Q* Fill in: inhibition of growth at 10 µM of CCSc1nc(N)c2c(-c3cccn3C)c3c(nc2n1)C(C)CCC3 (stereo unspecified) is ___
*A* 68.5%

*Q* What would you report for CC1CCCc2c1nc1ncn(N)c(=N)c1c2-c1cccn1C (stereo unspecified) ?
*A* 38.6%

*Q* What would you report for CC1CCCc2c1nc1[nH]c(=S)n(-c3ccccc3)c(=N)c1c2-c1cccn1C (stereo unspecified) ?
*A* 47.6%

*Q* What would you report for CC1CCCc2c1nc1[nH]c(=S)nc(N)c1c2-c1cccn1C (stereo unspecified) ?
*A* 51.9%

*Q* What would you report for CC1CCCc2c1nc1ncn3ncnc3c1c2-c1cccn1C (stereo unspecified) ?
*A* 12.2%

Could you now consider this next compound?
*Q* Fill in: inhibition of growth at 10 µM of CC1CCCc2c1nc(NC(=S)NC(=O)c1ccccc1)c(C#N)c2-c1cccn1C (stereo unspecified) is ___
*A* 36.7%

###

tested on: NCI-H522; test: Growth inhibition of human NCI-H522 cells after 48 hrs by sulforhodamine B assay; format: functional; conditions: NCI-H522, 48 h
Reported endpoint: GI50 (µM)
Numbers only; they are read as µM.

*Q* Fill in: GI50 of Cn1cccc1-c1cc(-c2ccccc2)nc(N)c1C#N is ___
*A* 61.6

###

Known log10(GI50) of a selection of compounds
tested on: SR; experiment: Growth inhibition of human SR cells after 48 hrs by sulforhodamine B assay; format: functional
Plainly stated, the numbers are log10 of GI50 given in µM.

For orientation, consider the following solved cases.
*Q* Give recorded log10(GI50) with SR for the following compound: COc1ccc(-c2cc(-c3cccn3C)c(C#N)c(=O)[nH]2)cc1OC
*A* -0.32

*Q* What would you report for CC1CCCc2c1nc(N)c(C#N)c2-c1cccn1C (stereo not drawn) ?
*A* 0.53

*Q* What would you report for Cn1cccc1-c1cc(-c2cccs2)nc(N)c1C#N ?
*A* 0.73

*Q* What would you report for Cn1cccc1-c1cc(-c2ccccc2)nc(N)c1C#N ?
*A* 1.55

Could you now consider this next compound?
*Q* Give recorded log10(GI50) with SR for the following compound: COc1ccc(-c2cc(-c3cccn3C)c(C#N)c(N)n2)cc1OC
*A* 1.75

###

experiment: Growth inhibition of human OVCAR4 cells at 10 uM after 48 hrs by sulforhodamine B assay; assay type: functional; settings: OVCAR-4, 48 h, read-out: GI
Reported endpoint: inhibition of growth at 10 µM (%)
Numbers only; they are read as %.

For orientation, consider the following solved cases.
*Q* Fill in: inhibition of growth at 10 µM of CC1CCCc2c1nc(NC(=S)NC(=O)c1ccccc1)c(C#N)c2-c1cccn1C (centres undefined) is ___
*A* 27.6

*Q* What would you report for CC1CCCc2c1nc1[nH]c(=S)nc(N)c1c2-c1cccn1C (centres undefined) ?
*A* 13.8

*Q* What would you report for CC1CCCc2c1nc1ncn3ncnc3c1c2-c1cccn1C (centres undefined) ?
*A* 6.1

Could you now consider this next molecule?
*Q* Fill in: inhibition of growth at 10 µM of CCSc1nc(N)c2c(-c3cccn3C)c3c(nc2n1)C(C)CCC3 (centres undefined) is ___
*A* 23.4
